SYSTEM: BACE-1 (Homo sapiens, UniProt P56817)
Construct: endogenous in cells; host or cells: HEK-293 cells stably transfected with wild type APP695
Sequence (P56817 46-501): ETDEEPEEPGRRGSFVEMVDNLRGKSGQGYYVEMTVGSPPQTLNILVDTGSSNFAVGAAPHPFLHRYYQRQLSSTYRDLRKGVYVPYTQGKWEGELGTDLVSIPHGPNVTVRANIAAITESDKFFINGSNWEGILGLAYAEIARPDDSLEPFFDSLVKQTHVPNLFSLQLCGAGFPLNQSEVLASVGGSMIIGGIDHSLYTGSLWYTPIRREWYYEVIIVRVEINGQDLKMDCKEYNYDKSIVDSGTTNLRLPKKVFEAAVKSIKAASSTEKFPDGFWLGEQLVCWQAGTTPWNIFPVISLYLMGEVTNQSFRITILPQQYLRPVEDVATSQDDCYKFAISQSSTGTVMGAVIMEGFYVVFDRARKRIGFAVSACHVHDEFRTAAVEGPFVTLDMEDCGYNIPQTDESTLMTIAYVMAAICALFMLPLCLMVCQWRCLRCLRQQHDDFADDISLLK
PROTOCOL NOTES: Cellular BACE-1 inhibition assay (in vitro cellular Amyloidβ 1-40 production, HTRF immunoassay)
Type: cell-based
TEST CONTEXT: inhibition of Amyloidβ 1-40 production; HEK-293 cells stably transfected with wild type APP695; 48 hours incubation; average where tested more than once; read-out: IC50
MEASUREMENT TYPE: IC50 (nM)
Give the quantity in nM, number only.

Worked examples, 6 compounds total:
# COMPOUND, MEASURE UNIT, IC50
records = [
    ("COC1CCC2Oc3ccc(-c4cncc(Cl)c4)cc3C3(COC(N)=N3)C2C1 (stereo not shown) [Example 54]", "nM", 33.5),
    ("NC1=NC2(CS1)c1cc(-c3cncnc3)ccc1OC1CCC(O)C[C@@H]12 (stereo in doubt) [Example 34]", "nM", 90.2),
    ("NC1=NC2(CO1)c1cc(-c3cncc(Cl)c3)ccc1OC1CCC(F)CC12 (stereo not shown) [Example 27]", "nM", 64.2),
    ("NC1=NC2(CS1)c1cc(-c3cncc(Cl)c3)ccc1OC1CC(O)CC[C@@H]12 (single isomer, unassigned) [Example 25]", "nM", 24.1),
    ("NC1=NC2(CO1)c1cc(-c3cccnc3F)ccc1OC1CCC3(CCO3)C[C@@H]12 (stereo partly shown) [Example 199]", "nM", 630),
    ("NC1=N[C@@]2(CO1)c1cc(-c3cncnc3)ccc1O[C@H]1CC[C@H](OCC3CC3)C[C@@H]12 [Example 150]", "nM", 100),
]

// switching to the query compound
Enter measured IC50, system BACE-1 (Homo sapiens, UniProt P56817), for the compound shown: N#Cc1cc(Cl)cc(-c2ccc3c(c2)[C@@]2(COC(N)=N2)[C@H]2C[C@@H](O)CC[C@@H]2O3)c1 [Example 140]
48.3

###

SYSTEM: BACE-1 (Homo sapiens, UniProt P56817)
Construct: endogenous in cells; host or cells: HEK-293 cells stably transfected with wild type APP695
PROTOCOL NOTES: Cellular BACE-1 inhibition assay (in vitro cellular Amyloidβ 1-40 production, HTRF immunoassay)
Assay type: cell-based
TEST CONTEXT: inhibition of Amyloidβ 1-40 production; HEK-293 cells stably transfected with wild type APP695; 48 hours incubation; average where tested more than once; read-out: IC50
Procedure: Materials and Methods: HEK-293 cells stably transfected with a DNA construct containing the coding sequence for the wild type APP695 sequence were grown in Dulbecco's Modified Eagle Medium (“DMEM”) supplemented with 10% fetal bovine serum, penicillin/streptomycin and 150 μg/mL G418. Cells were plated in 96-well plates at 35,000 cells/well and allowed to attach for 8-12 hours. […] The assay plate was incubated at 4° C. for 17 hours and then analyzed for fluorescence at 665 and 620 nm. […]
Reported pIC50 values follow for various compounds
Quick note: pIC50 values are minus log10 of concentrations in mol/L.

Solved entries:
# COMPOUND, REPORTED VALUE
records = [
    ("NC1=NC2(CO1)c1cc(-c3cncc(Cl)c3)ccc1O[C@H]1CCC(O)C[C@H]12 (stereo partly shown)", 5.59),
    ("CC(C)CS(=O)(=O)N1CC[C@@H]2Oc3ccc(-c4cccnc4F)cc3[C@]3(COC(N)=N3)[C@H]2C1 (single isomer, unassigned)", 7.39),
    ("Cc1nc(C(=O)Nc2ccc3c(c2)C2(COC(N)=N2)C2CCCCC2O3)co1 (single isomer, unassigned)", 7.13),
    ("NC1=NC2(CO1)c1cc(-c3cncnc3)ccc1OC1CCCCC12 (single isomer, unassigned) [Example 12]", 7.22),
    ("C[C@]12CCCO[C@@H]1[C@]1(COC(N)=N1)c1cc(-c3cncc(F)c3)ccc1O2 (relative stereo)", 6.81),
]

Specify pIC50 for NC1=NC2(CO1)c1cc(-c3cccnc3F)ccc1OC1CCNC[C@@H]12 (mixture of isomers) , system BACE-1 (Homo sapiens, UniProt P56817).
5.88

Give pIC50 only, for NC1=NC2(CO1)c1cc(-c3cccnc3F)ccc1OC1CCC(O)C[C@@H]12 (stereo in doubt) , using BACE-1 (Homo sapiens, UniProt P56817) data.
7.33

###

SYSTEM: BACE-1 (Homo sapiens, UniProt P56817)
Construct: endogenous in cells; host or cells: HEK-293 cells stably transfected with wild type APP695
PROTOCOL NOTES: Cellular BACE-1 inhibition assay (in vitro cellular Amyloidβ 1-40 production, HTRF immunoassay)
Format: cell-based
TEST CONTEXT: inhibition of Amyloidβ 1-40 production; HEK-293 cells stably transfected with wild type APP695; 48 hours incubation; average where tested more than once; read-out: IC50
Reported pIC50 values for the following compounds.
Just the number, please; pIC50 means minus log10 of the concentration in mol/L.

In the examples that follow, each entry is paired with its recorded pIC50.
# COMPOUND, pIC50
records = [
    ("NC1=NC2(CO1)c1cc(-c3cncc(Cl)c3)ccc1OC1CCCCC12 (racemic)", 7.36),
    ("C[C@@]12CCO[C@@H]1[C@@]1(COC(N)=N1)c1cc(-c3cc(F)cc(Cl)c3)ccc1O2", 5.28),
    ("NC1=NC2(CO1)c1cc(-c3cncc(Cl)c3)ccc1O[C@@H]1CCCC[C@H]12 (single isomer, unassigned)", 7.23),
]

Note: attention shifts to another entry.
Input NC1=N[C@]2(CO1)c1cc(-c3cncc(Cl)c3)ccc1OC1CC[C@H](OCC3CC3)C[C@@H]12 (relative stereo) , output reported pIC50.
8.05
